# Tested on: 317291-083-R-J1-PDC complex spheroid growth;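 note: compound exposure lasted seven days after spheroids formed for three days; 100% = DMSO vehicle control wells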
# TEST DETAILS: Anticancer human tumor 317291-083-R-J1-PDC patient-derived soft tissue sarcoma cell line growth inhibition [Asc]
# MEASUREMENT PARAMETERS: second compound 0.316 µM; first compound 0.01 µM; active compounds read low
Listing of recorded viability, T/C by entry.
Give just the number in %; leave the unit off.

Please review the entries below; each comes with its answer.
INSERT INTO results (molecule, quantity, observed_measurement) VALUES
  ('CCN1CCN(Cc2ccc(Nc3ncc(F)c(-c4cc(F)c5nc(C)n(C(C)C)c5c4)n3)nc2)CC1 + Cc1c(S(C)(=O)=O)c(-c2cc(F)cc(N3CCN(c4ccc(NS(=O)(=O)c5ccc(NC(CCN6CCC(C(=O)OCCCP(=O)(O)O)CC6)CSc6ccccc6)c(S(=O)(=O)C(F)(F)F)c5)cc4)CC3)c2)c(-c2ccc(Cl)cc2)n1C(C)C', 'viability, T/C', 80.5),
  ('NC1CCC(NC2CC2c2ccccc2)CC1 (configuration not stated) + CNC(C)C(=O)NC1CN(S(=O)(=O)c2cccc(S(=O)(=O)N3CCC4CCC(C(=O)NC(c5ccccc5)c5ccccc5)N4C(=O)C(NC(=O)C(C)NC)C3)c2)CCC2CCC(C(=O)NC(c3ccccc3)c3ccccc3)N2C1=O', 'viability, T/C', 54),
  ('CNC(C)C(=O)NC1CN(S(=O)(=O)c2cccc(S(=O)(=O)N3CCC4CCC(C(=O)NC(c5ccccc5)c5ccccc5)N4C(=O)C(NC(=O)C(C)NC)C3)c2)CCC2CCC(C(=O)NC(c3ccccc3)c3ccccc3)N2C1=O (configuration not stated) + Cc1c(S(C)(=O)=O)c(-c2cc(F)cc(N3CCN(c4ccc(NS(=O)(=O)c5ccc(NC(CCN6CCC(C(=O)OCCCP(=O)(O)O)CC6)CSc6ccccc6)c(S(=O)(=O)C(F)(F)F)c5)cc4)CC3)c2)c(-c2ccc(Cl)cc2)n1C(C)C', 'viability, T/C', 67.4),
  ('Cn1ncnc1[C@H]1c2n[nH]c(=O)c3cc(F)cc(c23)N[C@@H]1c1ccc(F)cc1 + Cc1c(S(C)(=O)=O)c(-c2cc(F)cc(N3CCN(c4ccc(NS(=O)(=O)c5ccc(NC(CCN6CCC(C(=O)OCCCP(=O)(O)O)CC6)CSc6ccccc6)c(S(=O)(=O)C(F)(F)F)c5)cc4)CC3)c2)c(-c2ccc(Cl)cc2)n1C(C)C', 'viability, T/C', 66.8),
  ('COc1c(OCCCN2CCOCC2)ccc2c3n(c(=NC(=O)c4cnc(N)nc4)nc12)CCN3 + CNC(C)C(=O)NC1CN(S(=O)(=O)c2cccc(S(=O)(=O)N3CCC4CCC(C(=O)NC(c5ccccc5)c5ccccc5)N4C(=O)C(NC(=O)C(C)NC)C3)c2)CCC2CCC(C(=O)NC(c3ccccc3)c3ccccc3)N2C1=O', 'viability, T/C', 44.4),
  ('COc1c(OCCCN2CCOCC2)ccc2c3n(c(=NC(=O)c4cnc(N)nc4)nc12)CCN3 + Cc1c(S(C)(=O)=O)c(-c2cc(F)cc(N3CCN(c4ccc(NS(=O)(=O)c5ccc(NC(CCN6CCC(C(=O)OCCCP(=O)(O)O)CC6)CSc6ccccc6)c(S(=O)(=O)C(F)(F)F)c5)cc4)CC3)c2)c(-c2ccc(Cl)cc2)n1C(C)C', 'viability, T/C', 85.5);

Asked: Identify viability, T/C associated with the molecule Cn1ncnc1[C@H]1c2n[nH]c(=O)c3cc(F)cc(c23)N[C@@H]1c1ccc(F)cc1 + CNC(C)C(=O)NC1CN(S(=O)(=O)c2cccc(S(=O)(=O)N3CCC4CCC(C(=O)NC(c5ccccc5)c5ccccc5)N4C(=O)C(NC(=O)C(C)NC)C3)c2)CCC2CCC(C(=O)NC(c3ccccc3)c3ccccc3)N2C1=O
Given back: 41.6
